assay: oral pharmacokinetics (plasma, brain, CSF); type: in vivo, Sprague Dawley rats; conditions: Sprague-Dawley, rat, plasma, po, 10 mg/kg, per os 10 mg/kg, normal saline (* in 5% NMP, 5% Solutol HS, 90% normal saline), read-out: Tmax
Cut-off 30 min on Tmax: below means Yes, at or above means No.

Record excerpt, results attached:
{"compound": "C[C@@H](O)[C@@H](C(N)=O)N1CC2(CCCCC2)C1=O", "discrete_label": "Yes"}
{"compound": "O=C1NCC12CCC(O)CC2 (centres unmarked) [AL, 7-hydroxy-2-azaspiro[3.5]nonan-1-one]", "discrete_label": "No"}
{"compound": "CC1CCC2(CC1)CN(C(CO)C(=O)O)C2=O (single isomer, unassigned)", "discrete_label": "Yes"}
{"compound": "C[C@@H](O)[C@@H](C(N)=O)N1CC2(CCC(F)(F)CC2)C1=O", "discrete_label": "No"}

QUERY: Tmax under 30 min? Item: O=C1NCC12CCCCC2 [Compound AB, 2-azaspiro[3.5]nonan-1-one]
RESULT: Yes

QUERY: Tmax under 30 min? Item: C[C@@H](O)[C@H](NC1CCC2(CC1)CNC2=O)C(N)=O (single isomer, unassigned)
RESULT: No
